Target: T1, TNF-R1 (a protein having the amino acid sequence, Accession No. M58286 registered at GENBANK) (UniProt P19438 30-211, limits assumed)
T1 construct: also called TNF receptor having a molecular weight of 55 kilo daltons
T1 sequence (looked up): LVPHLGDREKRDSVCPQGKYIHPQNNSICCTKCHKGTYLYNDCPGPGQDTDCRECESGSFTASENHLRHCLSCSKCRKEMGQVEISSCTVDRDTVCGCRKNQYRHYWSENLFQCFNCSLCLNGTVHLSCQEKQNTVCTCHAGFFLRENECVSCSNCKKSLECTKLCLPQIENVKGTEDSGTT
Experiment: SPR (BIACORE 2000), receptor on sensor tip; grade 2 = 0.5 to 0.1 time that of recombinant TNF-α
readout label: binding affinity relative to recombinant TNF-α

binder	data value
TNF mutant protein of clone No. 14 (ligand, Mutant of lysine-replaced TNF, made in E. coli) VRSSSRTPSDMPVAHVVANPQAEGQLQWLNRRANALLANGVELRDNQLVVPSEGLYLIYSQVLFSGQGCPSTHVLLTHTISRIAVSYQTPVNLLSAIRSPCQRETPEGAEANPWYEPIYLGGVFQLEPGDRLSAEINRPDYLDFANDGQVYFGIIAL	0.1 to 0.5 fold
TNF mutant protein of clone No. 13 (ligand, Mutant of lysine-replaced TNF, made in E. coli) VRSSSRTPSDMPVAHVVANPQAEGQLQWLNRRANALLANGVELRDNQLVVPSEGLYLIYSQVLFSGQGCPSTHVLLTHTISRIAVSYQTPVNLLSAIRSPCQRETPEGAEANPWYEPIYLGGVFQLEPGDRLSAEINRPDYLDFADDGQVYFGIIAL	0.1 to 0.5 fold

Now look at this entry.
Recorded binding affinity relative to recombinant TNF-α (binder TNF mutant protein of clone No. 7 (ligand, Mutant of lysine-replaced TNF, made in E. coli) VRSSSRTPSDMPVAHVVANPQAEGQLQWHNNTANALLANGVELRDNQLVVPSEGLYLIYSQVLFSGQGCPSTHVLLTHTISRIAVSYQTPVNLLSAIRSPCQRETPEGAEANPWYEPIYLGGVFQLEPGDRLSAEINRPDYLDFDSNGQVYFGIIAL ): 0.1 to 0.5 fold
